assay: DUSP6 inhibitors restoring Erk phosphorylation by chemical complementation, primary imaging in DUSP6-transfected HeLa (AID 609); settings: HeLa MKP-3 transfected, phospho-Erk imaging KS statistic; measured here: nuclear c-Myc green intensity z-score; at 10 µM; cells stimulated with TPA for 15 min
Classification field: fulfilled = z-score at or over -0.3; not fulfilled = z-score under -0.3.

Known results for compounds:
CCCc1nc(N2CCCC2)c(C#N)c2c1CCCC2 :: fulfilled
COc1cccc(C2CC(c3ccccc3Cl)n3nc(N)nc3N2)c1 (configuration not stated) :: fulfilled
CC1(C)NC(=O)N(CC(O)COc2cc3ccccc3cc2C(=O)N2CCCCC2)C1=O (configuration not stated) :: fulfilled

// switching to the query compound
Query string: Does Cn1c(Cl)nc2c1c(=O)n(Cc1cccc(Br)c1)c(=O)n2C have a reported z-score of at least -0.3?
Result string: fulfilled
